- MEASURED_ON: Cytochrome P450 2C19 (Homo sapiens)
- Sequence (P33261 whole entry): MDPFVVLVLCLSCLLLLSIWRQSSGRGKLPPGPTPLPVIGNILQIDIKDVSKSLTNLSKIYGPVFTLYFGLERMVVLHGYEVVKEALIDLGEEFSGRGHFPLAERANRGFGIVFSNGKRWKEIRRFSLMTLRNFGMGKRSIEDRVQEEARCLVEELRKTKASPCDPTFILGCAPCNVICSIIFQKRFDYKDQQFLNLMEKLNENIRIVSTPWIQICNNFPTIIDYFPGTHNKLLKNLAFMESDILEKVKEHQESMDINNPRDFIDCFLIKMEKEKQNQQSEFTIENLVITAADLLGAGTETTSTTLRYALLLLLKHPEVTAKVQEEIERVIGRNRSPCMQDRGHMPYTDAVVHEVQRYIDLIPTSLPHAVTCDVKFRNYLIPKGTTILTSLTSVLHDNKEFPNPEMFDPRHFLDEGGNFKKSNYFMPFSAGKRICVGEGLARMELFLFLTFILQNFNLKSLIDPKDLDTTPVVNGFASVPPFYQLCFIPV
- ASSAY_REMARKS: Cytochrome panel assay with activity outcomes. Panel member name: p450-cyp2c19 Compounds with AC50 equal or less than 10 uM are considered active
- Type: functional
- CONDITION_INFO: read-out: AC50
REPORTED_ENDPOINT: AC50

// AC50 (Cytochrome P450 2C19 (Homo sapiens)) for COc1cccc(-c2nc(NCCNC(C)=O)c3ccccc3n2)c1 = 15800 nM (inconclusive)

// AC50 (Cytochrome P450 2C19 (Homo sapiens)) for COCCn1c(=O)c(CCc2ccccc2)nc2cnc(N3CCN(C)CC3)nc21 = 10000 nM (inconclusive)

// AC50 (Cytochrome P450 2C19 (Homo sapiens)) for Cc1ccc(Oc2cc(N3CCOCC3)nc(-c3ccccc3)n2)cc1 = 2240 nM (inconclusive)

// AC50 (Cytochrome P450 2C19 (Homo sapiens)) for C=CCN1C[C@H](C)N([C@@H](c2ccccc2)c2ccc(C(=O)N(CC)CC)cc2)C[C@H]1C = 63.1 nM (inconclusive)

// AC50 (Cytochrome P450 2C19 (Homo sapiens)) for CN(C)c1ccc2nc3c(C(=O)O)cc(=O)c(O)c-3oc2c1 = 2510 nM (inconclusive)

FYI, the data here is from ChEMBL document CHEMBL1201862.
